Recorded increase of total intracellular amount of glucuronide compared with the control for the following compounds
# EXPERIMENTAL_SYSTEM: BCRP (Homo sapiens)
# Construct: endogenous in cells; host or cells: HeLa cells stably transfected with UGT1A9 (from Dr. Ming Hu, University of Houston)
# Sequence (Q9UNQ0 whole entry): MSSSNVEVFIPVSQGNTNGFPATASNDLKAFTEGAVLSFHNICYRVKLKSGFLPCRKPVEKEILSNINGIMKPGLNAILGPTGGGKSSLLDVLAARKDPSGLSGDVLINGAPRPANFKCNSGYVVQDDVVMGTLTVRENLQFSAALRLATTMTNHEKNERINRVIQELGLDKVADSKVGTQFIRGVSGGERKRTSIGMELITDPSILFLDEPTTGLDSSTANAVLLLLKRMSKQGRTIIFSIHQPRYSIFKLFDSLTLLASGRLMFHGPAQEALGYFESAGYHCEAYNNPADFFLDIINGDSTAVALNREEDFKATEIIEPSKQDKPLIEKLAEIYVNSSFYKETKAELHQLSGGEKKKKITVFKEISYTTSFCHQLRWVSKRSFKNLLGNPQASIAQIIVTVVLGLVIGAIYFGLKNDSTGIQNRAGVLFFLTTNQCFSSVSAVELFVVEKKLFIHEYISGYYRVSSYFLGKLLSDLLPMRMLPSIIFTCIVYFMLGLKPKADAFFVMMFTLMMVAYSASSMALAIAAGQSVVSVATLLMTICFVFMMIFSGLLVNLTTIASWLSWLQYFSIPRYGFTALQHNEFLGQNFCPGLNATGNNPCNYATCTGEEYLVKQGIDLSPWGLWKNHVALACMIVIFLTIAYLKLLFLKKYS
# PROTOCOL_SUMMARY: Effect of BCRP inhibitor Ko143 on glucuronide excretion in HeLa—UGT1A9 cells
# Type: cell-based
# MEASUREMENT_CONDITIONS: 5 μM Ko143, 2.5 μM diosmetin or chrysoeriol
OBSERVATION_TYPE: increase of total intracellular amount of glucuronide compared with the control (fold)

| COMPOUND | RECORDED_NUMBER |
| --- | --- |
| COc1ccc(-c2cc(=O)c3c(O)cc(O)cc3o2)cc1O[C@@H]1O[C@H](C(=O)O)[C@@H](O)[C@H](O)[C@H]1O [Dio-3′-G, diosmetin-3′-O-glucuronide] | 1.3 |
| COc1ccc(-c2cc(=O)c3c(O)cc(O[C@@H]4O[C@H](C(=O)O)[C@@H](O)[C@H](O)[C@H]4O)cc3o2)cc1O [Dio-7-G, Diosmetin-7-O-glucuronide] | 1.1 |
| COc1cc(-c2cc(=O)c3c(O)cc(O)cc3o2)ccc1O[C@@H]1O[C@H](C(=O)O)[C@@H](O)[C@H](O)[C@H]1O [Chr-4′-G, chrysoeriol-4′-O-glucuronide] | 1.3 |
| COc1cc(-c2cc(=O)c3c(O)cc(O[C@@H]4O[C@H](C(=O)O)[C@@H](O)[C@H](O)[C@H]4O)cc3o2)ccc1O [Chr-7-G, chrysoeriol-7-O-glucuronide] | 1.3 |

###

# EXPERIMENTAL_SYSTEM: BCRP (Homo sapiens)
# Construct: endogenous in cells; host or cells: HeLa cells stably transfected with UGT1A9 (from Dr. Ming Hu, University of Houston)
# PROTOCOL_SUMMARY: Effect of BCRP inhibitor Ko143 on glucuronide excretion in HeLa—UGT1A9 cells
# Assay type: cell-based
# MEASUREMENT_CONDITIONS: 10 μM Ko143, 2.5 μM diosmetin or chrysoeriol
Recorded increase of total intracellular amount of glucuronide compared with the control for the following compounds
OBSERVATION_TYPE: increase of total intracellular amount of glucuronide compared with the control (fold)

| COMPOUND | RECORDED_NUMBER |
| --- | --- |
| COc1cc(-c2cc(=O)c3c(O)cc(O)cc3o2)ccc1O[C@@H]1O[C@H](C(=O)O)[C@@H](O)[C@H](O)[C@H]1O [Chr-4′-G, chrysoeriol-4′-O-glucuronide] | 1.8 |
| COc1ccc(-c2cc(=O)c3c(O)cc(O[C@@H]4O[C@H](C(=O)O)[C@@H](O)[C@H](O)[C@H]4O)cc3o2)cc1O [Dio-7-G, Diosmetin-7-O-glucuronide] | 1.5 |
| COc1ccc(-c2cc(=O)c3c(O)cc(O)cc3o2)cc1O[C@@H]1O[C@H](C(=O)O)[C@@H](O)[C@H](O)[C@H]1O [Dio-3′-G, diosmetin-3′-O-glucuronide] | 1.8 |
| COc1cc(-c2cc(=O)c3c(O)cc(O[C@@H]4O[C@H](C(=O)O)[C@@H](O)[C@H](O)[C@H]4O)cc3o2)ccc1O [Chr-7-G, chrysoeriol-7-O-glucuronide] | 1.7 |

###

# System: human liver microsomes (HLMs)
# PROTOCOL_SUMMARY: Glucuronidation kinetics of diosmetin and chrysoeriol by HLMs
# Assay type: in vitro ADME
# MEASUREMENT_CONDITIONS: formation of the named glucuronide from diosmetin or chrysoeriol

| MOLECULE | Vmax / nmol/mg/min |
| --- | --- |
| COc1ccc(-c2cc(=O)c3c(O)cc(O)cc3o2)cc1O[C@@H]1O[C@H](C(=O)O)[C@@H](O)[C@H](O)[C@H]1O [Dio-3′-G, diosmetin-3′-O-glucuronide] | 1.16 |
| COc1ccc(-c2cc(=O)c3c(O)cc(O[C@@H]4O[C@H](C(=O)O)[C@@H](O)[C@H](O)[C@H]4O)cc3o2)cc1O [Dio-7-G, Diosmetin-7-O-glucuronide] | 0.61 |
| COc1cc(-c2cc(=O)c3c(O)cc(O[C@@H]4O[C@H](C(=O)O)[C@@H](O)[C@H](O)[C@H]4O)cc3o2)ccc1O [Chr-7-G, chrysoeriol-7-O-glucuronide] | 0.15 |
| COc1cc(-c2cc(=O)c3c(O)cc(O)cc3o2)ccc1O[C@@H]1O[C@H](C(=O)O)[C@@H](O)[C@H](O)[C@H]1O [Chr-4′-G, chrysoeriol-4′-O-glucuronide] | 0.20 |
